Target: Tyrosine-protein kinase ABL1 [1-999,Q252H] (Homo sapiens, UniProt P00519, Q252H)
Construct: 1-999
Test: Biochemcial Assay
Settings: pH 7.5
Text: An in vitro kinase assay using phosphorylated recombinant human Abl kinase domains to phosphorylate a peptide substrate.
Measured property: IC50 (nM)

CC(O)c1cccc(Nc2ncc3cc(-c4cc(N(C)C(=O)c5cccc(C(F)(F)F)c5)ccc4Cl)c(=O)n(C)c3n2)c1 (configuration not stated)	150

P: CC(O)c1cccc(Nc2ncc3cc(-c4c(Cl)cccc4Cl)c(=O)n(C)c3n2)c1 (configuration not stated)
Q: CC(O)c1cccc(Nc2ncc3cc(-c4cc(NC(=O)c5cccc(C(F)(F)F)c5)ccc4Cl)c(=O)n(C)c3n2)c1 (configuration not stated)
Challenge: Which record would sort first by descending IC50, P or Q ? # respond with the chosen item's label
Response given: Q
(Q: 19.6 nM, P: 5.7 nM)

---

Biological target: Tyrosine-protein kinase ABL1 [1-999,Q252H] (Homo sapiens, UniProt P00519, Q252H)
Construct: 1-999
Assay: Biochemcial Assay
Conditions: pH 7.5
Measured property: IC50 (nM)

Solved cases (5 shown):
CC(O)c1cccc(Nc2ncc3cc(-c4cc(N(C)C(=O)c5cccc(C(F)(F)F)c5)ccc4Cl)c(=O)n(C)c3n2)c1 (stereo not drawn)	9.1
Cc1cc(NC(=O)c2cccc(C(F)(F)F)c2)ccc1NC(=O)c1cc2cnc3[nH]ccc3c2s1	154
CC(O)c1cccc(Nc2ncc3cc(-c4c(Cl)cccc4Cl)c(=O)n(C)c3n2)c1 (stereo not drawn)	5.8
CC(O)c1cccc(Nc2ncc3cc(-c4cc(NC(=O)c5cccc(C(F)(F)F)c5)ccc4Cl)c(=O)n(C)c3n2)c1 (stereo not drawn)	27.2
Cc1ccc(N(C)C(=O)c2cccc(C(F)(F)F)c2)cc1Nc1nccc(-c2cccnc2)n1	1360

a: O=C(Nc1ccc(Oc2ncnc3[nH]ccc23)cc1)Nc1cccc(C(F)(F)F)c1
b: Cc1ccc(NC(=O)c2cccc(C(F)(F)F)c2)cc1Nc1nccc(-c2cccnc2)n1
Challenge: Which entry has a larger number for IC50, a or b ? Give the label of your selection.
Response given: a
(a: 374 nM, b: 5 nM)

---

Target: Tyrosine-protein kinase ABL1 [1-999,Q252H] (Homo sapiens, UniProt P00519, Q252H)
Construct: 1-999
Experiment: Biochemcial Assay
Details: pH 7.5
Measured property: IC50

Challenge: Please list IC50 recorded for the molecule O=C(Nc1ccc(N2CCOCC2)cc1)c1cc2cnc3[nH]ccc3c2s1
Response given: > 5 µM

---

Biological target: Tyrosine-protein kinase ABL1 [1-999,Q252H] (Homo sapiens, UniProt P00519, Q252H)
Construct: 1-999
Experiment: Biochemcial Assay
Details: pH 7.5
Each item that follows carries a reported IC50.

Field: example entries. Status: answers known.
Cc1ccc(NC(=O)c2cccc(C(F)(F)F)c2)cc1Nc1nccc(-c2cccnc2)n1 [Type II inhibitor, 2]	0.152 µM
Cc1cc(NC(=O)c2cccc(C(F)(F)F)c2)ccc1NC(=O)c1cc2cnc3[nH]ccc3c2s1 [Type II inhibitor, 8]	> 5 µM
O=C(Cc1cccc(C(F)(F)F)c1)Nc1ccc(Oc2ncnc3[nH]ccc23)cc1 [Type II inhibitor, 6]	> 5 µM
O=[N+]([O-])c1ccc(Oc2ncnc3[nH]ccc23)cc1 [Type I progenitor, 4]	> 5 µM

Next, consider the following compound.
Challenge: Supply recorded IC50 for Cc1ccc(N(C)C(=O)c2cccc(C(F)(F)F)c2)cc1Nc1nccc(-c2cccnc2)n1 [Type II inhibitor, 3] here.
Response given: > 5 µM

Where do the numbers come from? From BindingDB's records for doi:10.1016/j.chembiol.2006.05.015.
